Molecular target: T1, native human glycophorin A protein (human, UniProt P02724 20-150)
T1 construct: mature; also called Hu-nat GPA
T1 sequence (looked up): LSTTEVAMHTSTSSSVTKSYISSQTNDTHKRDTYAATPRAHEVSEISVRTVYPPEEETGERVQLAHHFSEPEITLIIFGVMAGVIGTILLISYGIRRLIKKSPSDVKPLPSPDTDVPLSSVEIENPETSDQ
Experiment: ELISA, Fab on coated native human GPA
assay-metric: binding in ELISA relative to parental Fab

>  <binder>
TPP-5674, Hu6C12-24 Fab variant VH: (I48M, L70M) (Fab, V domains shown, Built on the parental Fab TPP-4935) VH: EVQLVQSGAEVKKPGASVKVSCKASGYTFTTYTIHWVRQAPGQGLEWMGYINPSSDYTRYNPKFKDRVTMTTDKSTSTAYMELRSLRSDDTAVYYCQTGTRDYWGQGTTVTVSS VL: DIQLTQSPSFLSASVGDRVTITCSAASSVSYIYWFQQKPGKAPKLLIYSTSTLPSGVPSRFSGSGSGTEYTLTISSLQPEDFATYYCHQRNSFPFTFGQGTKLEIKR

>  <value-observed>
1.4 relative to parental Fab

$$$$
>  <binder>
TPP-5356, Hu6C12-24 Fab variant VL: (F35Y, Y70F) (Fab, V domains shown, Built on the parental Fab TPP-4935) VH: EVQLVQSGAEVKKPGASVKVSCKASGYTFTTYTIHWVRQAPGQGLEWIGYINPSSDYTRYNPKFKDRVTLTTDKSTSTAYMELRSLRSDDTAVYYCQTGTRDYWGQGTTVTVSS VL: DIQLTQSPSFLSASVGDRVTITCSAASSVSYIYWYQQKPGKAPKLLIYSTSTLPSGVPSRFSGSGSGTEFTLTISSLQPEDFATYYCHQRNSFPFTFGQGTKLEIKR

>  <value-observed>
0.7 relative to parental Fab

$$$$

Data provenance is patent US20190359687A1.
